target or system: T1, Human BCMA (human, UniProt Q02223 1-54, limits assumed)
T1 construct: Soluble analyte in SPR; construct not described; also called huBCMA; B-cell maturation antigen
T1 sequence (looked up): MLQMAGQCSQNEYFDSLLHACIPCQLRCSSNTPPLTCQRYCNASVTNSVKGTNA
test summary: SPR, IgG immobilised, 25 C
Recorded koff by entry
Write it as a number; the unit s⁻¹ goes unstated.

Record excerpt, results attached:
L1.GDF/L3.KW/H3.AP (antibody, V domains shown, IgG) VH: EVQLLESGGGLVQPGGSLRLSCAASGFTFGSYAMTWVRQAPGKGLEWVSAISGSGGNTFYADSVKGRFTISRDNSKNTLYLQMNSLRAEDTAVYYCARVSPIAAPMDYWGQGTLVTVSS VL: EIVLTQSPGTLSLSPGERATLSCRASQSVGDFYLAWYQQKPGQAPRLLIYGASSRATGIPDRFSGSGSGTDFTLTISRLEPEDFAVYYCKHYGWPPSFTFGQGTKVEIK ... 0.00461
L1.GDF/L3.KW/H3.AL (antibody, V domains shown, IgG) VH: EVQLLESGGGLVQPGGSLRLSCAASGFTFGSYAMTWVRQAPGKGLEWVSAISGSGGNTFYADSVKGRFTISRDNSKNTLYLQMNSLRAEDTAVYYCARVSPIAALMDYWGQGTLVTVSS VL: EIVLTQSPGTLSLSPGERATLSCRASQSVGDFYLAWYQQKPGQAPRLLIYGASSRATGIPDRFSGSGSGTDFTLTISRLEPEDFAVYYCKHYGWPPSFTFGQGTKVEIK ... 0.0039

Now for the binder whose koff we want.
Given item L1.GDF/L3.NY/H3.AL (antibody, V domains shown, IgG) VH: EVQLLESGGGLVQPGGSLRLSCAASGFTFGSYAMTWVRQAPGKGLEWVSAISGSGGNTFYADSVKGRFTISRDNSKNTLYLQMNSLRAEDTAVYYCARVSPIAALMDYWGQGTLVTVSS VL: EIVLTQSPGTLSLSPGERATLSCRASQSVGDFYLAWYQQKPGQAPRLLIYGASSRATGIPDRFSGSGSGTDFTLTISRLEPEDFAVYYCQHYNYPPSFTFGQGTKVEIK , the value recorded as its koff is 0.00403
